Tested on: HeLa cells
Test: In vitro expression of firefly luciferase (Fluc) after treatment with Fluc mRNA/amino lipidated peptoid formulations, no PEG or 2% DMG-PEG2000
Type: cell-based
Conditions: with 2% (w/w) DMG-PEG2000, peptoid:mRNA 5:1, 6 h after treatment
MEASURED_PROPERTY: Luciferase Expression (RLU) 6 h
Give bare numbers, in RLU.

CCCCCCCCCCN(CC(N)=O)C(=O)CN(CCCCCCCCCC)C(=O)CN(CCCCCCCCCC)C(=O)CN(CCCCCCCCCC)C(=O)CN(CCc1ccccc1)C(=O)CN(CCc1ccccc1)C(=O)CN(CCNC)C(=O)CN(CCc1ccccc1)C(=O)CN(CCc1ccccc1)C(=O)CN(CCNC)C(=O)CN(CCc1ccccc1)C(=O)CN(CCc1ccccc1)C(=O)CN(CCNC)C(=O)CN(CCc1ccccc1)C(=O)CN(CCc1ccccc1)C(=O)CNCCNC; 5.85E+02
CCCCCCCCCCN(CC(N)=O)C(=O)CN(CCCCCCCCCC)C(=O)CN(CCc1ccccc1)C(=O)CN(CCN)C(=O)CN(CCc1ccccc1)C(=O)CN(CCN)C(=O)CN(CCc1ccccc1)C(=O)CNCCN; 3.27E+01
CCCCCCCCCCN(CC(N)=O)C(=O)CN(CCCCCCCCCC)C(=O)CN(CCN)C(=O)CN(CCN)C(=O)CN(CCN)C(=O)CN(CCN)C(=O)CNCCN; 5.33E+00

// below: Luciferase Expression (RLU) 6 h requested for another compound
Assign Luciferase Expression (RLU) 6 h to the following record: CCCCCCCCCCN(CC(N)=O)C(=O)CN(CCCCCCCCCC)C(=O)CN(CCc1ccccc1)C(=O)CN(CCc1ccccc1)C(=O)CN(CC1CCNCC1)C(=O)CN(CCc1ccccc1)C(=O)CN(CCc1ccccc1)C(=O)CN(CC1CCNCC1)C(=O)CN(CCc1ccccc1)C(=O)CN(CCc1ccccc1)C(=O)CNCC1CCNCC1 4.64E+02
